tested on: SF-268; assay: NCI tumour cell line growth inhibition, 48 h
The source made the active and inactive calls. Cut-off read from the data, not from the text of the source: active = GI50 up to about 1.1 µM and inactive = higher.
Return exactly one item of TRUE = active, FALSE = inactive

Per the assay record, what outcome was assigned to Cc1ccc(S(=O)(=O)C2=c3ncccc3=C3C(=O)c4ccccc4C(=O)C32)cc1 (configuration not stated) ? FALSE

Per the assay record, what outcome was assigned to N#CC(Nc1cccc(C(F)(F)F)c1)c1ccccc1C(F)(F)F (configuration not stated) ? FALSE

Per the assay record, what outcome was assigned to O=C(/C=C/c1c(O)ccc2ccccc12)c1cccc2ccccc12 ? FALSE

Per the assay record, what outcome was assigned to C[C@]12CC(c3ccccc3O1)C(C(N)=O)C(=O)N2 (some centres not stated) ? FALSE

Per the assay record, what outcome was assigned to Cc1ccc(C(=O)N(C(C)C)C(C)C)cc1/N=N/N(C)C ? FALSE

Per the assay record, what outcome was assigned to c1csc(-c2cc(-c3ccsc3)c(-c3ccsc3)s2)c1 ? FALSE

Per the assay record, what outcome was assigned to CCOC(=O)CCC(NC(=O)C(N)Cc1ccc(N(CCCl)CCCl)cc1)C(=O)OCC (configuration not stated) ? TRUE

Per the assay record, what outcome was assigned to CCCCCCCC(=O)OC[C@@H](C[As](=O)(O)O)OC(=O)CCCCCCC ? FALSE

Per the assay record, what outcome was assigned to C#CCN(N=O)C(=O)NC(CCCCNC(=O)OCc1ccccc1)C(=O)OCc1ccccc1 (configuration not stated) ? FALSE

Per the assay record, what outcome was assigned to COc1ccc(C(=O)Cc2c(C(=O)c3ccccc3)c3ccccc3n2C(=O)c2ccccc2)cc1 ? FALSE

Per the assay record, what outcome was assigned to Nc1ccc(OCC(O)N2C(=O)c3ccccc3C2=O)cc1 (configuration not stated) ? FALSE

Per the assay record, what outcome was assigned to NC(=O)c1cc2ccc(O)cc2o/c1=N/NC(=O)c1ccccc1 ? FALSE

====

system: LXFL 529; experiment: NCI tumour cell line growth inhibition, 48 h
Activity calls are given as the source filed them. Cut-off read from the data, not from the text of the source: active = GI50 up to about 1.1 µM and inactive = higher.
observable: GI50

Value lookup for GI50; key = Oc1cc(-c2ccccn2)nc2cccc(F)c12 74.1 µM (inactive)

Value lookup for GI50; key = COC(=O)C(=O)C(C#N)c1nc2ccccc2s1 (stereo unspecified) > 100 µM (inactive)

Value lookup for GI50; key = CC1C2=CC=C(O2)C(C)(C)C2=CC=C(O2)C(C)(C)C2=CC=C(O2)C(C)(C)C2=CC=C1O2 > 100 µM (inactive)

Value lookup for GI50; key = c1ccc([P+](c2ccccc2)(c2ccccc2)C2Sc3ccccc3S2)cc1 12.6 µM (inactive)

Value lookup for GI50; key = CC(C)(CCl)NC(=O)c1cccc(C(=O)NC(C)(C)CCl)n1 > 100 µM (inactive)

Value lookup for GI50; key = COc1ccc(-c2ccc(CC(=O)O)cc2)cc1OC > 100 µM (inactive)

Value lookup for GI50; key = COc1ccc2oc3c4c2c1CCC4CCC3=O (stereo unspecified) > 100 µM (inactive)

Value lookup for GI50; key = BrC1(Br)C2/C=C\CCCCC21 (stereo unspecified) > 100 µM (inactive)

Value lookup for GI50; key = NNC(=O)/C(NC(=O)c1ccccc1)=C(\N)c1cccc([N+](=O)[O-])c1 > 100 µM (inactive)

Value lookup for GI50; key = CN/N=C(/Cc1occc(=O)c1O)C(=O)Nc1ccccc1C > 100 µM (inactive)

Value lookup for GI50; key = CCc1nc2ccccc2c(=O)n1/N=C(\N=N\c1ccc(Cl)cc1)c1ccc(N(C)C)cc1 23.7 µM (inactive)

====

tested on: MDA-MB-231; test: NCI tumour cell line growth inhibition, 48 h
Calls of active or inactive are those of the source. Rule as the data show it: active = GI50 up to about 1.1 µM and inactive = higher.
Return exactly one item of true = active, false = inactive

Per the assay record, what outcome was assigned to C#CCOC(=O)[C@@H](C)c1ccc2cc(OC)ccc2c1 ? false

Per the assay record, what outcome was assigned to O=C1C(OC(=O)c2ccccc2)=C(c2ccc(O)cc2)C(=O)C(OC(=O)c2ccccc2)=C1c1ccc(O)cc1 ? false

Per the assay record, what outcome was assigned to CN(Cc1cnc2nc(N)nc(N)c2n1)c1ccc(C(=O)NC(CCC(=O)O)C(=O)O)cc1 (stereo unspecified) ? false

Per the assay record, what outcome was assigned to CCOC(=O)c1c(NC(=S)Nc2ccc(C)cc2)sc2c1CCN(C)C2 ? false

Per the assay record, what outcome was assigned to Cc1ccc(S(=O)(=O)C2=c3ncccc3=C3C(=O)c4ccccc4C(=O)C32)cc1 (stereo unspecified) ? false

Per the assay record, what outcome was assigned to CC(=O)OCCOCCN1CCN(C2=C(Cl)C(=O)c3c(O)ccc(O)c3C2=O)CC1 ? true

Per the assay record, what outcome was assigned to CC1=CC(=O)c2ccccc2C1=O ? false

Per the assay record, what outcome was assigned to CCN1CCN(c2nc3ccccc3nc2C(=O)c2ccc(OC)c(OC)c2)CC1 ? false

Per the assay record, what outcome was assigned to CCCc1cc(-c2ccc(-c3cc(CCC)c(C=O)[nH]3)s2)[nH]c1C=O ? false

Per the assay record, what outcome was assigned to O=C(NCCCCCCNC(=O)c1cccc2ccccc12)Nc1cccc2ccccc12 ? false

Per the assay record, what outcome was assigned to CO[C@@]12[C@H](COC(N)=O)C3=C(C(=O)C(C)=C(N)C3=O)N1C[C@@H]1N[C@@H]12 ? false

Per the assay record, what outcome was assigned to COc1ccc(CCn2cnc3ccccc32)cc1 ? false

Per the assay record, what outcome was assigned to O=C(O)CNC(=O)c1ccc2cc(C(=O)N3CC(CCl)c4ccc([N+](=O)[O-])cc43)[nH]c2c1 (stereo unspecified) ? false

Per the assay record, what outcome was assigned to CC(C)(C)OC(=O)N1C(C2=COc3ccccc3O2)=COc2cccnc21 ? false

Per the assay record, what outcome was assigned to Cc1cc(=O)oc2cc(OC(=O)Nc3ccccc3)ccc12 ? false

Per the assay record, what outcome was assigned to CCN(CC)Cc1sc2nc3ccccc3n2c1-c1ccc(OC)cc1 ? false

====

tested on: U-251; test: NCI tumour cell line growth inhibition, 48 h
The source made the active and inactive calls. Cut-off read from the data, not from the text of the source: active = GI50 up to about 1.1 µM and inactive = higher.
Return exactly one item of true for active, false for inactive

Per the assay record, what outcome was assigned to CC1CC(C)C(O)C(C2CC(CC(=O)NC3CCCCC3)CC(=O)O2)C1 (stereo not given) ? false

Per the assay record, what outcome was assigned to COC1OC(COCc2ccc(Cl)cc2)C(OCc2ccc(Cl)cc2)C1N=[N+]=[N-] (stereo not given) ? false

Per the assay record, what outcome was assigned to CC(C)c1cccc(C(C)C)c1NC(=O)C(=O)C1CCC2=C(Sc3ccccc3N2)C1=O (stereo not given) ? false

Per the assay record, what outcome was assigned to CC1(C)N=c2c(ncn2CCO)=C(C(N)=O)N1 ? false

Per the assay record, what outcome was assigned to C(=N\c1ccc(-c2cc(-c3ccccc3)nc3ccc4ccccc4c23)cc1)/c1ccccc1 ? false

Per the assay record, what outcome was assigned to C[C@]12CC[C@H]3[C@@H](CCC4=C[C@@H](OC5OCC(OC6OC(CO)C(O)C(O)C6O)C(O)C5O)CC[C@@]43C=O)[C@@]1(O)CCC2C1=CC(=O)OC1 (stereo not given in full) ? true

Per the assay record, what outcome was assigned to CN(NC(=O)c1ccco1)C1=NCCN1 ? false

Per the assay record, what outcome was assigned to N=C(N)N/N=C\c1c(-c2ccccc2)nc2sccn12 ? false

Per the assay record, what outcome was assigned to COC(=O)CCc1ccc2c(c1)[C@H](C(=O)OC)[C@@H](c1ccc(O)cc1)O2 ? false

Per the assay record, what outcome was assigned to CCCCCC(=O)OCC1(CO)C/C(=C\CC(C(C)C)C(C)C)C(=O)O1 (stereo not given) ? false

====

system: SR; test: NCI tumour cell line growth inhibition, 48 h
Activity calls are given as the source filed them. No stated cut-off is given here; in the data, active = GI50 up to about 1.1 µM and inactive = higher.
Return exactly one item of Y for active, N for inactive

Per the assay record, what outcome was assigned to CCCCCCNC(=S)N/N=C(\C)c1ccccn1 ? Y

Per the assay record, what outcome was assigned to COC(=O)C1=C(C)N2CCCOC2(C)C(C(=O)OC)C1c1cccc(Cl)c1 (configuration not stated) ? N

Per the assay record, what outcome was assigned to COc1cc([C@@H]2c3cc4c(cc3[C@@H](OC(=O)c3cccc(N)c3)C3COC(=O)[C@@H]32)OCO4)cc(OC)c1O (some centres not stated) ? Y

Per the assay record, what outcome was assigned to COC(=O)CCC12CCC(O1)c1ccccc12 (configuration not stated) ? N

Per the assay record, what outcome was assigned to COc1ccc2c3c([nH]c2c1)CCN(CCCC(=O)c1ccc(F)cc1)C3 ? N

Per the assay record, what outcome was assigned to CO[C@@]12C[C@@H](C)C3=CCC(C)=C3CC1=C(C)C(=O)O2 ? N

Per the assay record, what outcome was assigned to O=C(NCCCc1cn[nH]c(=O)n1)c1cccc2nc3ccccc3nc12 ? N

Per the assay record, what outcome was assigned to CC(=O)/C(=C/N1CCNC1=S)C(=O)Nc1ccccc1C ? N

Per the assay record, what outcome was assigned to CC(C)(CCl)NC(=O)c1cccc(C(=O)NC(C)(C)CCl)n1 ? N

Per the assay record, what outcome was assigned to Cc1ccc2[nH]c3c(C)c4cc[n+](C)cc4c(C)c3c2c1 ? N

Per the assay record, what outcome was assigned to COc1ccc(CCn2cnc3ccccc32)cc1 ? N

Per the assay record, what outcome was assigned to COc1ccc2oc3c4c2c1CCC4CCC3=O (configuration not stated) ? N

Per the assay record, what outcome was assigned to COC(=O)c1c(C)nc(C)c(NO)c1-c1ccccc1C(F)(F)F ? N

Per the assay record, what outcome was assigned to O=[N+]([O-])c1ccccc1S(=O)(=O)c1ccccc1[N+](=O)[O-] ? N

Per the assay record, what outcome was assigned to COc1ccc(/C(C=O)=C(\Cl)c2ccc(OC)c(OC)c2)cc1 ? N

Per the assay record, what outcome was assigned to NNC(=O)/C(NC(=O)c1ccccc1)=C(\N)c1cccc([N+](=O)[O-])c1 ? N

Per the assay record, what outcome was assigned to CC1(C)Oc2ccc3c(=O)cc(-c4ccc(F)cc4)oc3c2C1C(=O)O (configuration not stated) ? N

Per the assay record, what outcome was assigned to CC1=C[C@]2(O)C(=O)[C@H](C)C[C@H]3[C@@H](CC[C@@](C)(O)/C=C\2C1=O)C3(C)C ? N

Per the assay record, what outcome was assigned to Cc1ccc(O)c(C2=NNC(c3cccc(Cl)c3)C2)c1 (configuration not stated) ? N

Per the assay record, what outcome was assigned to S=C1Cc2cc3ccccc3nc2-c2ccccc2N1 ? N

Per the assay record, what outcome was assigned to CSc1nc(N)c(NC2OC(CO)C(O)C2O)c(=O)[nH]1 (configuration not stated) ? N

Per the assay record, what outcome was assigned to CN(c1ccccc1)c1c(Cl)c(=O)oc2c1ccc1occc12 ? N
